# Target Of Assay: 5-HT2A receptor (Homo sapiens)
# Construct: expressed in transfected cells; host or cells: NIH 3T3 (mouse fibroblasts), transient transfection, PSI expression vector
# Sequence (P28223 whole entry): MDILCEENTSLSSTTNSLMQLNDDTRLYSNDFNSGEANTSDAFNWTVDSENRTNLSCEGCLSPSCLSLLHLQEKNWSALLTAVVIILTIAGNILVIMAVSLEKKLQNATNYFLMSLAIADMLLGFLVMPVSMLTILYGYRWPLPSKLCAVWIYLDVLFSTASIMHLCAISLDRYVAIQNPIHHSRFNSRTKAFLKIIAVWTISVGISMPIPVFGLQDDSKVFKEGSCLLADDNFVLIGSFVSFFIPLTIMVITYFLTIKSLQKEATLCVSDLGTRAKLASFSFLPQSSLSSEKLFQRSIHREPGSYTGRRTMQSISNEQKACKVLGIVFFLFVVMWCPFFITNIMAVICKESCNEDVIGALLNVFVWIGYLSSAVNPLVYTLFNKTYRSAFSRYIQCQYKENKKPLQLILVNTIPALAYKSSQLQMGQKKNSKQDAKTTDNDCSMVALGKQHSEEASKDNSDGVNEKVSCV
# Method Notes: R-SAT functional assay of the 5-HT2A receptor in NIH 3T3 cells (agonism and inverse agonism)
# Assay type: cell-based
# Cond: Table 6; inverse agonism; 50 ng per well receptor DNA
Param threshold (8) applies to 5-HT2A Receptor Negative Log EC50; output met when value >= threshold, not met when value < threshold.

INSERT INTO results (compound, assigned_class) VALUES
  ('CCN(CC)CCCN1c2ccccc2Sc2ccc(Cl)cc21 [Chlorproethizene]', 'not met');

Does OCCN1CCN(CC/C=C2\c3ccccc3Sc3ccc(C(F)(F)F)cc32)CC1 [Trans-Flupentixol] have a reported 5-HT2A Receptor Negative Log EC50 of at least 8?
not met

Record: CN(C)CCCN1c2ccccc2Sc2cccnc21 [Prothypendyl]
not met

Record: CN1CCN(C2Cc3ccccc3Sc3ccc(Cl)cc32)CC1.O=C(O)/C=C\C(=O)O (stereo not drawn) [Octoclothepin]
met

Record: CN1CCCCC1CCN1c2ccccc2Sc2ccc([S+](C)[O-])cc21 (stereo not drawn) [Mesioridazine]
not met

Hey, just so you know, these numbers are from patent US20090156501A1.
